# assayText: yeast display, Sf9 membrane polyspecificity reagent, FACS + sequencing; frameworks hold sequencing errors
recordedMetric: polyreactivity (PSR sort gate)

1. QVQLVESGGGLVQAGGSLRISCASSGFTFSQYAMGWYRQAPGKERELVAAISSSGGRTYYADSVKGRFTISRDNAKNTVYLQMKSLKPEDTAFFYCAAPGAQGLGLRGAGLDYWGQGTQVTVSS high polyreactivity
2. QVQLVESGGGLVQAGGSLRLSCAASGLIFYRNALGWYRQEPGKERELVATISRRGGRTYYADSVKGRFTISRDNAKNTVYLQMNSLNPEDTAVYYCNADDYSSRGGYDSWGQGTQVTVSS high polyreactivity
3. QVQLVESGGGLVQAGGSLRLSCAASGSTFSTYAMGWYRQAPGKERELVAAIRWSGGSTYYADSVKGRFTISRDNAKNTVYLQMNSLKPEDTAVYYCATDAPDRTDSDSGFDAGYDYWGQGTQVTLSS low polyreactivity
4. QVQLVESGGGLVKAGGSLRLSCAASGFIFGYNDMGGYRQAPGKERELVAAITSRGDRTYYADSVKGRFTISRDNAKNTVYLQMNSLKPEDTAVYYCAAESQAYSLYWGQGTQLTVSS high polyreactivity

Let us examine a further case.
The value of polyreactivity (PSR sort gate) measured for the sequence QVQLVESGGGLVQAGGSLRLSCAASGSIFSFYAMGWSRQAPGKERELVASISYSGGTTFYADSVKGRFTISRDNAKNTVYLQMNSLKTEDTAVYYSAATCEPPQRGYVKDEFDYWGQVTQVTVSS turned out to be low polyreactivity
